System: U-251
Test: NCI tumour cell line growth inhibition, 48 h
Activity calls are given as the source filed them. No stated cut-off is given here; in the data, active = GI50 up to about 1.1 µM and inactive = higher.
OBSERVED PROPERTY: GI50

{"columns": ["COMPOUND", "READING"],
 "data": [
  ["COC(=O)C(CCSc1ccccc1)C(=O)OC", "> 100 µM (inactive)"],
  ["O=c1nc2n(CCO)c(-c3ccccc3)c(-c3ccccc3)nc-2c(=O)[nH]1", "> 100 µM (inactive)"],
  ["Nc1nccc(NCC2(CO)CC(OCc3ccccc3)C2)n1 (stereo unspecified)", "> 100 µM (inactive)"],
  ["CC1=NNC(=O)C1C1CC(c2c[nH]c3ccccc23)=NN=C1Cl (stereo unspecified)", "43.6 µM (inactive)"],
  ["O=C1CCC2(c3ccc(F)cc3)Nc3ccccc3N12 (stereo unspecified)", "> 100 µM (inactive)"],
  ["COC(=O)C(Cc1ccccc1)NC(=O)CNC(=O)CSc1nnc(COc2ccc(Cl)cc2)n1-c1ccccc1 (stereo unspecified)", "18.2 µM (inactive)"],
  ["Cc1cc2occ(C)c(=O)c2c2c1OC(C)(C)S2", "> 100 µM (inactive)"],
  ["COc1cc2cc3c4c(cc(OC)c(OC)c4c2cc1OC)CCN3C(=O)CCCC(=O)O", "> 100 µM (inactive)"],
  ["COc1cc2c(cc1C)NC(=O)/C2=C/c1cccnc1", "9.55 µM (inactive)"],
  ["COc1cc2c3c(c1OC)-c1ccccc1C(C(OC(C)=O)c1ccccc1)C3N(C)CC2 (stereo unspecified)", "34 µM (inactive)"],
  ["Brc1ccc2c(-c3csc(-c4c[nH]c5ccc(Br)cc45)n3)c[nH]c2c1", "4.26 µM (inactive)"],
  ["COc1ccc(C(=C[N+](=O)[O-])c2ccc(OC)cc2)cc1", "11.3 µM (inactive)"],
  ["Nc1nc2ccc(OCC(O)CN3CCCCC3)cc2[n+]([O-])n1 (stereo unspecified)", "> 100 µM (inactive)"],
  ["OCC(O)COc1ccc(Br)cc1 (stereo unspecified)", "> 100 µM (inactive)"],
  ["COc1ccc2c(c1)[n+]([O-])c(C(=O)C/C(=N/OCCCc1ccccc1)C(=O)NC13CC4CC(CC(C4)C1)C3)c(C)[n+]2[O-]", "> 100 µM (inactive)"],
  ["CCOC(=O)[C@H]1Nc2ccc([N+](=O)[O-])cc2C2c3ccccc3CC21 (stereo partly specified)", "16.1 µM (inactive)"],
  ["O=[N+]([O-])c1ccc(N2N=C(c3ccc4ccccc4c3O)CC2c2ccc(Cl)cc2Cl)c([N+](=O)[O-])c1 (stereo unspecified)", "28 µM (inactive)"],
  ["CCOC(=O)N1CCC2(CC1)CC(=O)N(Nc1ccccc1)C2=O", "> 100 µM (inactive)"],
  ["Cc1cccc2[nH]c3c(c(O)cc4[nH]c5cccc(C)c5c(=O)c43)c(=O)c12", "3.3 µM (inactive)"],
  ["CC1(C)CC(=O)C2=C(C1)OC1(CC2c2ccc(Cl)cc2)CC(c2ccc(Cl)cc2)C2=C(CC(C)(C)CC2=O)O1 (stereo unspecified)", "22.5 µM (inactive)"],
  ["NN/C(Cc1ccccc1)=N/NC(N)=S", "> 100 µM (inactive)"]
]}

* * *

System: XF498
Test: NCI tumour cell line growth inhibition, 48 h
The source made the active and inactive calls. No stated cut-off is given here; in the data, active = GI50 up to about 1.1 µM and inactive = higher.

{"columns": ["COMPOUND", "GI50"],
 "data": [
  ["COc1ccc(CNc2cc(OC)c(OC)c(OC)c2)cc1", "21.3 µM (inactive)"],
  ["COc1ccc(CCN(C)C2CCC(C#N)(c3ccc(OC)c(OC)c3)CC2)cc1OC (centres undefined)", "> 100 µM (inactive)"],
  ["COc1cc2c(cc1OC)C1(c3ccccc3)ON=C(c3ccccc3)N1CS2 (centres undefined)", "> 100 µM (inactive)"],
  ["Cc1cc2occ(C)c(=O)c2c2c1OC(C)(C)S2", "> 100 µM (inactive)"],
  ["Clc1ccc2c(c1)C1C(CO2)C(c2ccccc2)=NN1c1ccccc1 (centres undefined)", "14.9 µM (inactive)"],
  ["S=C(N/N=C/c1ccccc1)NC1CC(c2ccccc2)Oc2ccccc21 (centres undefined)", "34.5 µM (inactive)"],
  ["COC1=CC(=O)c2c(O)c3c(c(O)c2C1=O)C=C(C)OC3O (centres undefined)", "1.84 µM (inactive)"],
  ["Cc1nnc(N/N=C(/C(=O)C(C#N)c2ccc(Cl)cc2)C(C#N)c2ccc(Cl)cc2)n1N (centres undefined)", "28.8 µM (inactive)"],
  ["O=C(Nc1ccc(Sc2ccc(/N=N/c3c(O)c(S(=O)(=O)O)cc4cc(S(=O)(=O)O)ccc34)cc2)cc1)c1ccc(/N=N/c2c(O)ccc3c(S(=O)(=O)O)cc(S(=O)(=O)O)cc23)cc1", "28.2 µM (inactive)"]
]}

Source listed as ChEMBL document CHEMBL1201862.
